- target-or-test-system: T1, Fc-CLEC-1A (recombinant human Fc-CLEC-1 protein, OSE IMMUNOTHERAPEUTICS) (human, Alexa Fluor 488 label in the flow cytometry competition assays)
- T1 construct: also called hFc-CLEC; Fc-CLEC1-A488
- T1 chain: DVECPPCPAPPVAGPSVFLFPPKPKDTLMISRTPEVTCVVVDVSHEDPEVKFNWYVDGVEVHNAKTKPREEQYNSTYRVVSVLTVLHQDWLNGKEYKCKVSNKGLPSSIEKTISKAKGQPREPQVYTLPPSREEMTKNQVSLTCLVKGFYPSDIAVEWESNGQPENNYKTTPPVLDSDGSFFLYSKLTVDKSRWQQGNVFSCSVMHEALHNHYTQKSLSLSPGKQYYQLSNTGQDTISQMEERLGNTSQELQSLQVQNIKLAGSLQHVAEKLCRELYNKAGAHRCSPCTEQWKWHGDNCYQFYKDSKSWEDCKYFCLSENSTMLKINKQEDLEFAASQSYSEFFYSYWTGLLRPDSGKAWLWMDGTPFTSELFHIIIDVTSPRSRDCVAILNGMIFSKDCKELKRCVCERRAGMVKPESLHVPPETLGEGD
- protocol-notes: flow cytometry competition: antibody pre-incubated with A488-labelled human Fc-CLEC-1 (10 µg/mL), then binding to live Hepa1.6 cells (ligand m16); % hFc-CLEC-1+ cells normalised on hIgG4
The entries below are paired with their reported EC50.

[
  {
    "binder": "chimeric 11H11 (antibody, V domains shown) VH: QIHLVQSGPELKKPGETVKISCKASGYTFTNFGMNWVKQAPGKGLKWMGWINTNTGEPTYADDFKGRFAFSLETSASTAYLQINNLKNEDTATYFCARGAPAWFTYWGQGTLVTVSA VL: DIQMTQSPASLSASVGETVTITCRATENIYSYLAWYQQKQGKSPQFLVYNAKTLAEGMPSRFSGSGSGTQFSLKINILQPEDFGTYYCQHHFGTPLTFGAGTKLELKR",
    "EC50": "2.58 µg/mL"
  },
  {
    "binder": "humanized 11H11 (antibody, human IgG4, V domains shown, Only variable domains are tied to the antibody; also called hum 11H11) VH: QIQLVQSGSELKKPGASVKVSCKASGYTFTNFGMNWVRQAPGQGLEWMGWINTNTGEPTYADDFKGRFVFSLDTSVSTAYLQISSLKAEDTATYFCARGAPAWFTYWGQGTTVTVSS VL: DIQMTQSPSSLSASVGDRVTITCRASESIYSYLAWYQQKPGKAPKFLIYNAKTLASGVPSRFSGSGSGTDFTLTISSLQPEDFATYYCQHHFGTPLTFGQGTKLEIK",
    "EC50": "0.542 µg/mL"
  },
  {
    "binder": "humanized 14H9 (antibody, V domains shown, Only variable domains are tied to the antibody) VH: QVQLVESGGGVVQPGRSLRLSCAISGFTLTTYGIHWVRQAPGKGLEWVAVIWSDASTIYASSLKSRFTISKDNTKNTVYLQMTSLRAEDTAVYYCARHGGYYNYFDYWGQGTLVTVSS VL: DIQMTQSPSSLSASVGDRVTITCHASQNINVWLSWYQQKPGKAPKLLLYKASNLHTGVPSRFSGSGSGTDFTLTISSLQPEDIATYYCQQGQSYWTFGGGTKVEIK",
    "EC50": "0.539 µg/mL"
  }
]
